Could you please report measured inhibition at 1 µM for the items listed next?
# target: Hck tyrosine kinase (Homo sapiens (Human))
# Sequence (P08631 whole entry): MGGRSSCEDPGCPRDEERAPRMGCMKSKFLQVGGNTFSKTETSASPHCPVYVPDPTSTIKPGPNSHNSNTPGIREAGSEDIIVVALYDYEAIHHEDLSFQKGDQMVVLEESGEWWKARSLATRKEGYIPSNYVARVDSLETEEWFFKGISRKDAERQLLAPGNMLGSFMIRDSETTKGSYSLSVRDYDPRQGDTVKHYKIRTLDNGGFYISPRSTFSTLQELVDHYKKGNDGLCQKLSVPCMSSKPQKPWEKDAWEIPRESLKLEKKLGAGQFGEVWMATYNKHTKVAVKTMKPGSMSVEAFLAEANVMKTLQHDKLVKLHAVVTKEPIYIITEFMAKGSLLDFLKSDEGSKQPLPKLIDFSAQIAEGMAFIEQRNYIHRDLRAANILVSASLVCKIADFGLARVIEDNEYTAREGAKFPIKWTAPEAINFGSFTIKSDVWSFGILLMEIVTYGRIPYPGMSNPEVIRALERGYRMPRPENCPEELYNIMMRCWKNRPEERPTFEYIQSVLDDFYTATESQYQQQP
# protocol: in vitro Hck tyrosine kinase inhibition
# Format: biochemical
# conditions-used: 1 uM compound; read-out: % inhibition against Hck

# lookup: inhibition at 1 µM of "Oc1cccc(Nc2ncnc3cc(-c4cccc(CCN5CCNCC5)c4)sc23)c1"
> 80%

# lookup: inhibition at 1 µM of "COc1cccc(Nc2ncnc3cc(-c4cccs4)sc23)c1"
> 40%

# lookup: inhibition at 1 µM of "CCNCc1ccc(-c2cc3ncnc(Nc4cccc(O)c4)c3s2)s1"
> 50%

# lookup: inhibition at 1 µM of "CC(C)CNCc1cccc(-c2cc3ncnc(Nc4cccc(O)c4)c3s2)c1.Cl"
> 80%

# lookup: inhibition at 1 µM of "Oc1cccc(Nc2ccnc3cc(-c4cccc(CN5CCCC5)c4)sc23)c1"
> 70%

###

Could you please report measured inhibition at 1 µM for the items listed next?
# target: DDR1 tyrosine kinase (Homo sapiens (Human), UniProt Q08345)
# Sequence (Q08345 610-905): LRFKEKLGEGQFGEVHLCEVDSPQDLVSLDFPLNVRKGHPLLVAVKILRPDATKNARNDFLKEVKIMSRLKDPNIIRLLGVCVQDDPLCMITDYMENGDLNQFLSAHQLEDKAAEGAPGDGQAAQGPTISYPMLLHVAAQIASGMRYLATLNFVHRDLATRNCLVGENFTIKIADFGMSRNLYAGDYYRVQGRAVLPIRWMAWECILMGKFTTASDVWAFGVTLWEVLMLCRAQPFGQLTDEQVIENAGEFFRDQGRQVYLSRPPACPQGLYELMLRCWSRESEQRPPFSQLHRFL
# protocol: in vitro DDR1 tyrosine kinase inhibition (GST-fused kinase domain)
# Type: biochemical
# conditions-used: 1 uM compound; read-out: % inhibition against DDR1

# lookup: inhibition at 1 µM of O=C(O)C1CCCN1Cc1ccc(-c2cc3ncnc(Nc4cccc(O)c4)c3s2)cc1 (stereo not drawn)
> 50%

# lookup: inhibition at 1 µM of "CN1CCN(Cc2ccc(-c3cc4nccc(Nc5cccc(O)c5)c4s3)cc2)CC1"
> 80%

# lookup: inhibition at 1 µM of "COc1cccc(Nc2ncnc3cc(-c4ccc(OCCN5CCCC5)cc4)sc23)c1"
> 20%

# lookup: inhibition at 1 µM of "Oc1cccc(Nc2ccnc3cc(-c4ccc(CN5CCNCC5)cc4)sc23)c1"
> 80%

# lookup: inhibition at 1 µM of "Oc1cccc(Nc2ncnc3cc(-c4ccoc4)sc23)c1"
> 70%

# lookup: inhibition at 1 µM of "Oc1cccc(Nc2ncnc3cc(-c4cc(CN5CCCCC5)cs4)sc23)c1"
> 70%

# lookup: inhibition at 1 µM of "COc1cccc(Nc2ncnc3cc(-c4ccc(OCCN5CCNCC5)cc4)sc23)c1"
> 20%

# lookup: inhibition at 1 µM of "CN1CCN(Cc2coc(-c3cc4ncnc(Nc5cccc(O)c5)c4s3)c2)CC1"
> 70%

# lookup: inhibition at 1 µM of "Oc1cccc(Nc2ncnc3cc(-c4ccc(CN5CCCCC5)s4)sc23)c1"
> 80%

###

Could you please report measured inhibition at 1 µM for the items listed next?
# target: Hck tyrosine kinase (Homo sapiens (Human))
# protocol: in vitro Hck tyrosine kinase inhibition
# Type: biochemical
# conditions-used: 1 uM compound; read-out: % inhibition against Hck

# lookup: inhibition at 1 µM of "CN1CCN(c2nc3ncnc(Nc4cccc(O)c4)c3s2)CC1"
> 30%

# lookup: inhibition at 1 µM of "Oc1cccc(Nc2ncnc3cc(-c4ccc(CN5CCNCC5)o4)sc23)c1"
> 70%

# lookup: inhibition at 1 µM of "CN1CCN(C(=O)Cc2ccc(-c3cc4ncnc(Nc5cccc(O)c5)c4s3)cc2)CC1"
> 30%

# lookup: inhibition at 1 µM of "Oc1cccc(Nc2ncnc3cc(-c4ccc(CN5CCOCC5)o4)sc23)c1"
> 70%

# lookup: inhibition at 1 µM of "Oc1cccc(Nc2ccnc3cc(-c4ccc(CN5CCCCC5)cc4)sc23)c1"
> 30%

# lookup: inhibition at 1 µM of "CCNCc1ccc(-c2cc3nccc(Nc4cccc(O)c4)c3s2)cc1"
> 30%

# lookup: inhibition at 1 µM of "Oc1cccc(Nc2ncnc3cc(-c4ccco4)sc23)c1"
> 50%

# lookup: inhibition at 1 µM of "Oc1cccc(Nc2ncnc3cc(Br)sc23)c1"
> 60%

# lookup: inhibition at 1 µM of "CCNCc1cccc(-c2cc3nccc(Nc4cccc(O)c4)c3s2)c1"
> 80%

###

# target: Hck tyrosine kinase (Homo sapiens (Human))
# protocol: in vitro Hck tyrosine kinase inhibition
# Format: biochemical
# conditions-used: 1 uM compound; read-out: % inhibition against Hck
Could you please report measured inhibition at 1 µM for the items listed next?

Please state recorded inhibition at 1 µM (tested on Hck tyrosine kinase (Homo sapiens (Human))) of "Cl.Oc1cccc(Nc2ncnc3cc(-c4cccc(CN5CCOCC5)c4)sc23)c1"
> 80%

Please state recorded inhibition at 1 µM (tested on Hck tyrosine kinase (Homo sapiens (Human))) of "CC1CCN(Cc2ccc(-c3cc4ncnc(Nc5cccc(O)c5)c4s3)cc2)CC1"
> 40%

Please state recorded inhibition at 1 µM (tested on Hck tyrosine kinase (Homo sapiens (Human))) of "O=C(c1cccc(-c2cc3ncnc(Nc4cccc(O)c4)c3s2)c1)N1CCCC1"
> 70%

Please state recorded inhibition at 1 µM (tested on Hck tyrosine kinase (Homo sapiens (Human))) of "Oc1cccc(Nc2ncnc3cc(-c4ccc(CN5CCCC5)o4)sc23)c1"
> 70%

Please state recorded inhibition at 1 µM (tested on Hck tyrosine kinase (Homo sapiens (Human))) of "Cl.Oc1cccc(Nc2ncnc3cc(-c4cccc(CCN5CCCC5)c4)sc23)c1"
> 80%

Please state recorded inhibition at 1 µM (tested on Hck tyrosine kinase (Homo sapiens (Human))) of "CN1CCN(Cc2cccc(-c3cc4nccc(Nc5cccc(O)c5)c4s3)c2)CC1"
> 80%

Please state recorded inhibition at 1 µM (tested on Hck tyrosine kinase (Homo sapiens (Human))) of "CN1CCN(Cc2coc(-c3cc4ncnc(Nc5cccc(O)c5)c4s3)c2)CC1"
> 50%

Please state recorded inhibition at 1 µM (tested on Hck tyrosine kinase (Homo sapiens (Human))) of COC[C@@H]1CCCN1C(=O)c1cc2nccc(Nc3ccc4c(c3)cc(C)n4C(=O)NC3CC3)c2s1 [Control compound 2, reference compound]
< 20%

Please state recorded inhibition at 1 µM (tested on Hck tyrosine kinase (Homo sapiens (Human))) of "COc1cccc(Nc2ncnc3cc(-c4ccc(OCCN5CCNCC5)cc4)sc23)c1"
> 60%

Please state recorded inhibition at 1 µM (tested on Hck tyrosine kinase (Homo sapiens (Human))) of "Oc1cccc(Nc2ncnc3cc(-c4ccc(CN5CCNCC5)s4)sc23)c1"
> 60%

Please state recorded inhibition at 1 µM (tested on Hck tyrosine kinase (Homo sapiens (Human))) of "COc1cccc(Nc2ncnc3cc(-c4ccco4)sc23)c1"
> 40%

Please state recorded inhibition at 1 µM (tested on Hck tyrosine kinase (Homo sapiens (Human))) of "CCN(CC)Cc1cccc(-c2cc3ncnc(Nc4cccc(O)c4)c3s2)c1.Cl"
> 80%

Please state recorded inhibition at 1 µM (tested on Hck tyrosine kinase (Homo sapiens (Human))) of "Oc1cccc(Nc2ncnc3cc(-c4ccc(CCN5CCOCC5)cc4)sc23)c1"
> 30%

Please state recorded inhibition at 1 µM (tested on Hck tyrosine kinase (Homo sapiens (Human))) of "Oc1cccc(Nc2ccnc3cc(-c4cccc(CN5CCCCC5)c4)sc23)c1"
> 70%

Please state recorded inhibition at 1 µM (tested on Hck tyrosine kinase (Homo sapiens (Human))) of "Oc1cccc(Nc2ncnc3cc(-c4cc(CN5CCCCC5)cs4)sc23)c1"
> 50%

Please state recorded inhibition at 1 µM (tested on Hck tyrosine kinase (Homo sapiens (Human))) of "O=C(Cc1ccc(-c2cc3ncnc(Nc4cccc(O)c4)c3s2)cc1)N1CCCC1"
> 40%

Please state recorded inhibition at 1 µM (tested on Hck tyrosine kinase (Homo sapiens (Human))) of "Oc1cccc(Nc2ncnc3cc(-c4ccc(Cl)cc4)sc23)c1"
> 60%

###

# target: UniProt:Q16832
# Sequence (Q16832 563-849): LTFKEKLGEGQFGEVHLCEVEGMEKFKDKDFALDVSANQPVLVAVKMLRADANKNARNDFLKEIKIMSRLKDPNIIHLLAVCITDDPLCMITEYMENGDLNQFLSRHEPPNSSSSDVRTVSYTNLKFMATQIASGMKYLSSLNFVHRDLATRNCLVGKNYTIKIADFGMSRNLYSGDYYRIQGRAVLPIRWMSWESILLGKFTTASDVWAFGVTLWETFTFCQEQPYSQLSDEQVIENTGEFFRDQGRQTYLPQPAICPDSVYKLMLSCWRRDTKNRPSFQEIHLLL
# protocol: in vitro DDR2 tyrosine kinase inhibition (GST-fused kinase domain)
# Type: biochemical
# conditions-used: 1 uM compound; read-out: % inhibition against DDR2
Could you please report measured inhibition at 1 µM for the items listed next?

# lookup: inhibition at 1 µM of "CCOCc1ccc(-c2cc3ncnc(Nc4cccc(O)c4)c3s2)cc1"
> 80%

# lookup: inhibition at 1 µM of "COc1cccc(Nc2ncnc3cc(-c4ccc(OCCN5CCNCC5)cc4)sc23)c1"
> 20%

# lookup: inhibition at 1 µM of "Oc1cccc(Nc2ccnc3cc(-c4ccc(CN5CCOCC5)cc4)sc23)c1"
> 80%

# lookup: inhibition at 1 µM of "Oc1cccc(Nc2ncnc3cc(-c4ccc(CN5CCCC5)s4)sc23)c1"
> 80%

# lookup: inhibition at 1 µM of "Oc1cccc(Nc2ncnc3cc(-c4ccsc4)sc23)c1"
> 70%

# lookup: inhibition at 1 µM of "Oc1cccc(Nc2ncnc3cc(-c4ccc(OCCN5CCOCC5)cc4)sc23)c1"
> 60%

# lookup: inhibition at 1 µM of "O=C(c1cccc(-c2cc3ncnc(Nc4cccc(O)c4)c3s2)c1)N1CCCC1"
> 80%

# lookup: inhibition at 1 µM of "CCN(CC)C(=O)Cc1ccc(-c2cc3ncnc(Nc4cccc(O)c4)c3s2)cc1"
> 80%

# lookup: inhibition at 1 µM of "Oc1cccc(Nc2ncnc3cc(-c4cc(CN5CCCC5)co4)sc23)c1"
> 70%

# lookup: inhibition at 1 µM of "CCNCc1ccc(-c2cc3ncnc(Nc4cccc(O)c4)c3s2)o1"
> 70%

# lookup: inhibition at 1 µM of "CN1CCN(Cc2ccc(-c3cc4nccc(Nc5cccc(O)c5)c4s3)cc2)CC1"
> 80%

# lookup: inhibition at 1 µM of "COc1cccc(Nc2ncnc3cc(-c4cccs4)sc23)c1"
> 70%

# lookup: inhibition at 1 µM of "CCNCc1ccc(-c2cc3ncnc(Nc4cccc(O)c4)c3s2)cc1"
> 80%

# lookup: inhibition at 1 µM of NC(=O)C1CCCN1Cc1ccc(-c2cc3ncnc(Nc4cccc(O)c4)c3s2)cc1 (stereo not drawn)
> 80%

# lookup: inhibition at 1 µM of "Oc1cccc(Nc2ncnc3cc(-c4cc(CN5CCCCC5)cs4)sc23)c1"
> 70%

# lookup: inhibition at 1 µM of "COc1cccc(Nc2ncnc3cc(-c4ccc(OCCc5ccccn5)cc4)sc23)c1"
> 10%

# lookup: inhibition at 1 µM of "Oc1cccc(Nc2ncnc3cc(-c4ccc(CN5CCNCC5)s4)sc23)c1"
> 80%

# lookup: inhibition at 1 µM of "CN1CCN(Cc2csc(-c3cc4ncnc(Nc5cccc(O)c5)c4s3)c2)CC1"
> 70%

# lookup: inhibition at 1 µM of "Oc1cccc(Nc2ncnc3cc(-c4ccc(CN5CCCCC5)o4)sc23)c1"
> 90%

# lookup: inhibition at 1 µM of "Oc1cccc(Nc2ncnc3cc(Br)sc23)c1"
> 20%

# lookup: inhibition at 1 µM of "COc1cccc(Nc2ncnc3cc(-c4ccc(OCCN5CCOCC5)cc4)sc23)c1"
> 70%

# lookup: inhibition at 1 µM of "COc1cccc(Nc2ncnc3cc(-c4ccc(OCCN5CCCC5)cc4)sc23)c1"
> 20%

# lookup: inhibition at 1 µM of "COc1ccc(-c2cc3ncnc(Nc4cccc(O)c4)c3s2)cc1"
> 70%

# lookup: inhibition at 1 µM of "CCNCc1ccc(-c2cc3nccc(Nc4cccc(O)c4)c3s2)cc1"
> 80%

# lookup: inhibition at 1 µM of "Oc1cccc(Nc2ncnc3cc(-c4ccc(CCN5CCOCC5)cc4)sc23)c1"
> 80%

# lookup: inhibition at 1 µM of CC(CO)NC(=O)c1ccc(-c2cc3ncnc(Nc4cccc(O)c4)c3s2)cc1 (stereo not drawn)
> 80%

# lookup: inhibition at 1 µM of "C[C@@H]1CCC[C@H](C)N1Cc1ccc(-c2cc3ncnc(Nc4cccc(O)c4)c3s2)cc1.Cl"
> 80%

# lookup: inhibition at 1 µM of "CN1CCN(c2nc3ncnc(Nc4cccc(O)c4)c3s2)CC1"
> 70%

# lookup: inhibition at 1 µM of "CN1CCN(Cc2cccc(-c3cc4nccc(Nc5cccc(O)c5)c4s3)c2)CC1"
> 80%

# lookup: inhibition at 1 µM of "Cl.OCCNCc1ccc(-c2cc3ncnc(Nc4cccc(O)c4)c3s2)cc1"
> 80%

# lookup: inhibition at 1 µM of "Oc1cccc(Nc2ncnc3cc(-c4ccc(CN5CCCC5)o4)sc23)c1"
> 80%

# lookup: inhibition at 1 µM of "COc1cccc(Nc2ncnc3cc(-c4ccc(OCCc5ccccc5)cc4)sc23)c1"
> 30%

# lookup: inhibition at 1 µM of "Oc1cccc(Nc2ncnc3cc(-c4ccc(CCN5CCCC5)cc4)sc23)c1"
> 80%

# lookup: inhibition at 1 µM of "CCNCc1cccc(-c2cc3ncnc(Nc4cccc(O)c4)c3s2)c1.Cl"
> 70%

# lookup: inhibition at 1 µM of "Oc1cccc(Nc2ncnc3cc(-c4ccc(CN5CCOCC5)o4)sc23)c1"
> 70%

# lookup: inhibition at 1 µM of "Oc1cccc(Nc2ncnc3cc(-c4cc(CN5CCNCC5)cs4)sc23)c1"
> 70%
